System: Acinetobacter baumannii ATCC 17978
Test: Antimicrobial susceptibility testing: 90% growth inhibitory concentration (IC90) determination
Format: cell-based
Settings: Acinetobacter baumannii, ATCC17978, 16 h, 90% growth inhibitory concentration; Acinetobacter baumannii ATCC17978; Iso-Sensitest broth, OD 600 nm over 16h; read-out: ATCC17978 IC90
Method: Antimicrobial Susceptibility Testing: 90% Growth Inhibitory Concentration (IC90) Determination The in vitro antimicrobial activity of the compounds was determined according to the following procedure: The assay used a 10-points Iso-Sensitest broth medium to measure quantitatively the in vitro activity of the compounds against Acinetobacter baumannii ATCC 17978 and Acinetobacter baumannii ATCC 17961. […]
Counter-ions that a name gives are not always drawn.
Please go through the items and note down their log10 IC90.
Transform log10 | Measure IC90 | Unit nM

CN(CCC1CCNCC1)C(=O)c1ccc(Nc2nccn3c(-c4ccc(OC(F)F)cc4)cnc23)cc1Cl [Example 23, hydrochloride]
2.18

Fill in log10 IC90 for each of the 6 molecules listed.
1. COc1ccc(-c2cnc3c(Nc4ccc(C(=O)NCC5CCOC5)c(C)c4)nccn23)cc1F (stereo not shown)
2. COc1ccc(-c2cnc3c(Nc4ccc(C(=O)N(C)CCN5CCCCC5)c(Cl)c4)nccn23)cc1F
3. CCc1cc(Nc2nccn3c(-c4ccc(Oc5ccc(OC)cn5)c(F)c4F)cnc23)ccc1C(=O)NCCNC(=O)CCN
4. COc1ccc(-c2cnc3c(Nc4ccc(C(=O)NCCO)cc4)nccn23)cc1Cl
5. COc1ccc(-c2cnc3c(Nc4ccc(C(=O)NCCCN5CCNCC5=O)c(C)c4)nccn23)c(F)c1F
6. Cc1cc(Nc2nccn3c(-c4ccc(OC(F)F)cc4)cnc23)ccc1C(=O)N1CCC(C(=O)NC[C@H](O)[C@@H](O)[C@H](O)[C@H](O)CO)CC1

Response given:
2.85
3.18
2.67
3.32
2.43
2.77
